Quick reference for AUC among some compounds
target: Protein cereblon/Histone acetyltransferase p300 (Homo sapiens) (UniProt Q09472+Q96SW2); test: PROTAC activity at CRBN/HiBiT-tagged p300 in human HAP1 cells assessed as total cumulative degradation by measuring AUC at 1000 nM measured over 24 hrs by luminescence based analysis; assay type: cell-based
Sequence (Q09472 2-2414 limits assumed): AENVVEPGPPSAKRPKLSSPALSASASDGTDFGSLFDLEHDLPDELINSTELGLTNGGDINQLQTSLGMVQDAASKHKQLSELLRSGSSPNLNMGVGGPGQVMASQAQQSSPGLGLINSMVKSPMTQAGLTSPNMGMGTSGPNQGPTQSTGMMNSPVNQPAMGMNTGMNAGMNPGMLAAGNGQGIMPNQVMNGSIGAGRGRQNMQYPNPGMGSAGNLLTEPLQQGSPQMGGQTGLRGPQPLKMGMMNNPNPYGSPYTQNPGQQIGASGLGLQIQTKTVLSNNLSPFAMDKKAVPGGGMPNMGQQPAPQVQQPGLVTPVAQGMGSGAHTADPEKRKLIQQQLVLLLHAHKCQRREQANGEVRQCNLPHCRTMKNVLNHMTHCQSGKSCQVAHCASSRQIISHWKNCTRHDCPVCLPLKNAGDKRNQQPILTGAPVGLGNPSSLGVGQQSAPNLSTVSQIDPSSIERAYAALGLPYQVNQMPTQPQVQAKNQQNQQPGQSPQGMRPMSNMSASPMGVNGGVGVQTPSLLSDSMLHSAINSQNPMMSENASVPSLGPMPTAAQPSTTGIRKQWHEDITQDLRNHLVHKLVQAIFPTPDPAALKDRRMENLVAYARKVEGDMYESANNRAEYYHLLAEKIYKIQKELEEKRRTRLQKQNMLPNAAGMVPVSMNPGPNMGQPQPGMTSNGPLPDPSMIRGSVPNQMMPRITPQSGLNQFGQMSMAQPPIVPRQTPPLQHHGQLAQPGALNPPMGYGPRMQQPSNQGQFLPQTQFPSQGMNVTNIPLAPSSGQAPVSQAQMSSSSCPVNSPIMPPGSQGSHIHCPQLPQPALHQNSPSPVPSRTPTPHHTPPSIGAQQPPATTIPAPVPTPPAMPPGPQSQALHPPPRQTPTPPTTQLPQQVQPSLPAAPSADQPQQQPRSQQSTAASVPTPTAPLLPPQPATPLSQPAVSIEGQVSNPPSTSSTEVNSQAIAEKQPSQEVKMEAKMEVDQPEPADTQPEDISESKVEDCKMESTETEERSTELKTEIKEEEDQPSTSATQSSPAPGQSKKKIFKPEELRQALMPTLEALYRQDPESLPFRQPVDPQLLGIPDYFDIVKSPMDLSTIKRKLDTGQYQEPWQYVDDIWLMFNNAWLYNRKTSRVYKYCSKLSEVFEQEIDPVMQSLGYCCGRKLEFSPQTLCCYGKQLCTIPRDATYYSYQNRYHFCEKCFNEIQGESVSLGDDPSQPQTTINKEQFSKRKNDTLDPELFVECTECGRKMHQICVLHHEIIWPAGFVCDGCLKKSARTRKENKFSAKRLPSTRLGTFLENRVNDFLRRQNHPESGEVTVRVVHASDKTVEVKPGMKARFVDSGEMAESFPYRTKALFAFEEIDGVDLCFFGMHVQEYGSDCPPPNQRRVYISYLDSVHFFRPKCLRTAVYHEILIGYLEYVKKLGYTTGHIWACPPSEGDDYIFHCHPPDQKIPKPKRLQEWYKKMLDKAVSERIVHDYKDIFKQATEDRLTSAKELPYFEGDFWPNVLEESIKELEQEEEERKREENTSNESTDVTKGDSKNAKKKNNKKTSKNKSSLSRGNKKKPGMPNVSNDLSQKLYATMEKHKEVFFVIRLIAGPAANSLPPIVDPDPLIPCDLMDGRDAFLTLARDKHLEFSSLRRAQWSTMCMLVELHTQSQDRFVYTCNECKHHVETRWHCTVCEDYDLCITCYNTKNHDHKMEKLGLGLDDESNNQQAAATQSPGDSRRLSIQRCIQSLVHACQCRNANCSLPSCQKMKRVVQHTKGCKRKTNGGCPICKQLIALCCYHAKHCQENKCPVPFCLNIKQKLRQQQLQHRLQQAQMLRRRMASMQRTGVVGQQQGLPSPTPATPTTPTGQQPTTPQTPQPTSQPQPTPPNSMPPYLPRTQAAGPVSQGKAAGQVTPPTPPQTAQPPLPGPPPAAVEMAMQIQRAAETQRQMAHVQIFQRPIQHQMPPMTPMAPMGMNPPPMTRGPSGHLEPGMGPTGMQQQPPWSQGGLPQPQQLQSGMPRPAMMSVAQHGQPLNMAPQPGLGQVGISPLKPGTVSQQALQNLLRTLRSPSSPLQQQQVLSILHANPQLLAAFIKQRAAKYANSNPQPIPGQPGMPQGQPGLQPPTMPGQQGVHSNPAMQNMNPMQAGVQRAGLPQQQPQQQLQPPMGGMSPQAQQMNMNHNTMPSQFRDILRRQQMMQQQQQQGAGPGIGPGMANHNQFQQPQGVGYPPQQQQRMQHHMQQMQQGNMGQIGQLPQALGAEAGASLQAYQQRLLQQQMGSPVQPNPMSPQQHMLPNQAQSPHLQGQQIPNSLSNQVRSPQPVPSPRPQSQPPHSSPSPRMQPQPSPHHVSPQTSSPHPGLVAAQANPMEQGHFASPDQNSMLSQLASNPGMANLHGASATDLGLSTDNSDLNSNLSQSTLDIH
Sequence (Q96SW2 whole entry partner): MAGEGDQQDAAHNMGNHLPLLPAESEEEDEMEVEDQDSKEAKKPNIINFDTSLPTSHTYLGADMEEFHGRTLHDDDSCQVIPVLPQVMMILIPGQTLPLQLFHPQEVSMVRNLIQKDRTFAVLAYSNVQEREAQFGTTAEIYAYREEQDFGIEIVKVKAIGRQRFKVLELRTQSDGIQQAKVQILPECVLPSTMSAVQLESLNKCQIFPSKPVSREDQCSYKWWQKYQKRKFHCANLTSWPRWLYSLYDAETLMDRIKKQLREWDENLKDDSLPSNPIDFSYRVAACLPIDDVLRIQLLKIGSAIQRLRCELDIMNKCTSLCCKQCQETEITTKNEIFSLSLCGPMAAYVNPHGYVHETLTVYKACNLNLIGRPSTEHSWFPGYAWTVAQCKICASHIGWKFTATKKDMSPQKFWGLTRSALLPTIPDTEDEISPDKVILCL
I only need the number, thanks.

Entry CNC(=O)N1CCc2c(c(N3CCCc4cc(-c5cnn(CC(=O)NCCOCCOCCOCCOCCOCCOCCNc6ccc7c(c6)C(=O)N(C6CCC(=O)NC6=O)C7=O)c5)c(C(F)F)cc43)nn2C2CCOCC2)C1 (stereo not given) — recorded AUC = 26.1

Data point: CNC(=O)N1CCc2c(c(N3CCCc4cc(-c5cnn(CC(=O)NCCOCCNc6ccc7c(c6)C(=O)N(C6CCC(=O)NC6=O)C7=O)c5)c(C(F)F)cc43)nn2C2CCOCC2)C1 (stereo not given) ; AUC = 13.5

Value of AUC reported for the compound CNC(=O)N1CCc2c(c(N3CCCc4cc(-c5cnn(C)c5)c(C(F)F)cc43)nn2C2CCN(C(=O)CCOCCOCCOCCOCCNc3ccc4c(c3)C(=O)N(C3CCC(=O)NC3=O)C4=O)CC2)C1 (stereo not given) is 4.8

Recorded result, CNC(=O)N1CCc2c(c(N3CCN(C(=O)NCCOCCOCCOCCOCCOCCOCCNc4ccc5c(c4)C(=O)N(C4CCC(=O)NC4=O)C5=O)c4cc(-c5cnn(C)c5)c(C(F)(F)F)cc43)nn2C2CCOCC2)C1 (stereo not given) , AUC: 20.5

// recorded AUC for CNC(=O)N1CCc2c(c(N3CCN(C(=O)NCCOCCNc4ccc5c(c4)C(=O)N(C4CCC(=O)NC4=O)C5=O)c4cc(-c5cnn(C)c5)c(C(F)(F)F)cc43)nn2C2CCOCC2)C1 (stereo not given) : 22.3

---

target: Protein cereblon/Histone acetyltransferase p300 (Homo sapiens) (UniProt Q09472+Q96SW2); assay: PROTAC activity at CRBN/HiBiT-tagged p300 in human HAP1 cells assessed as total cumulative degradation by measuring AUC at 0.01 nM measured over 24 hrs by luminescence based analysis; type: cell-based
quantity-name: AUC
Respond with the number and no other words.

Below are worked cases with known answers.
Lab book: AUC of CNC(=O)N1CCc2c(c(N3CCCc4cc(-c5cnn(C)c5)c(C(F)F)cc43)nn2C2CCN(C(=O)CCOCCOCCOCCOCCOCCOCCNc3ccc4c(c3)C(=O)N(C3CCC(=O)NC3=O)C4=O)CC2)C1 (stereo not drawn) noted as 27.3

Value of measured AUC for the entry CNC(=O)N1CCc2c(c(N3CCCc4cc(-c5cnn(C)c5)c(C(F)(F)F)cc43)nn2C2CCN(C(=O)CCOCCOCCOCCOCCNc3ccc4c(c3)C(=O)N(C3CCC(=O)NC3=O)C4=O)CC2)C1 (stereo not drawn) : 26.5

# next compound below
CNC(=O)N1CCc2c(c(N3CCCc4cc(-c5cnn(CC(=O)NCCOCCOCCOCCOCCOCCOCCNc6ccc7c(c6)C(=O)N(C6CCC(=O)NC6=O)C7=O)c5)c(C(F)F)cc43)nn2C2CCOCC2)C1 (stereo not drawn) has a reported AUC of 27.6

---

# Activity per record follows
molecular target: Protein cereblon/CREB-binding protein (Homo sapiens) (UniProt Q92793+Q96SW2); experiment: PROTAC activity at CRBN/HiBiT-tagged CBP in human HAP1 cells assessed as induction of CBP degradation by measuring degradation rate at 1 nM measured over 24 hrs by luminescence based analysis; assay type: cell-based
Could you give me the number in h⁻¹? Just the number is fine.

For orientation, consider the following solved cases.
So for CNC(=O)N1CCc2c(c(N3CCCc4cc(-c5cnn(C)c5)c(C(F)F)cc43)nn2C2CCN(C(=O)CCOCCNc3ccc4c(c3)C(=O)N(C3CCC(=O)NC3=O)C4=O)CC2)C1 (stereo not given) , the logged Activity turned out to be 0.26

CNC(=O)N1CCc2c(c(N3CCCc4cc(-c5cnn(C)c5)c(C(F)F)cc43)nn2C2CCN(C(=O)CCOCCOCCOCCOCCNc3ccc4c(c3)C(=O)N(C3CCC(=O)NC3=O)C4=O)CC2)C1 (stereo not given) has a reported Activity of 0.54

The molecule listed as CNC(=O)N1CCc2c(c(N3CCCc4cc(-c5cnn(C)c5)c(C(F)F)cc43)nn2C2CCN(C(=O)CCOCCOCCOCCOCCOCCOCCNc3ccc4c(c3)C(=O)N(C3CCC(=O)NC3=O)C4=O)CC2)C1 (stereo not given) shows Activity equal to 0.27

Would you kindly look at the next entry?
Entry CNC(=O)N1CCc2c(c(N3CCCc4cc(-c5cnn(C)c5)c(C(F)(F)F)cc43)nn2C2CCN(C(=O)CCOCCOCCOCCOCCNc3ccc4c(c3)C(=O)N(C3CCC(=O)NC3=O)C4=O)CC2)C1 (stereo not given) ; Activity = 0.63

---

# Activity per entry
molecular target: Protein cereblon/Histone acetyltransferase p300 (Homo sapiens) (UniProt Q09472+Q96SW2); assay: PROTAC activity at CRBN/HiBiT-tagged p300 in human HAP1 cells assessed as induction of p300 degradation by measuring degradation rate at 10 nM measured over 24 hrs by luminescence based analysis; format: cell-based
Numbers only here, please. The scale is h⁻¹.

Below, 2 compounds whose answers are already recorded.
Lab note: measured Activity of CNC(=O)N1CCc2c(c(N3CCCc4cc(-c5cnn(CC(=O)NCCOCCNc6ccc7c(c6)C(=O)N(C6CCC(=O)NC6=O)C7=O)c5)c(C(F)F)cc43)nn2C2CCOCC2)C1 (configuration not stated) was 0.22

According to the records, this compound CNC(=O)N1CCc2c(c(N3CCCc4cc(-c5cnn(CC(=O)NCCOCCOCCOCCOCCNc6ccc7c(c6)C(=O)N(C6CCC(=O)NC6=O)C7=O)c5)c(C(F)F)cc43)nn2C2CCOCC2)C1 (configuration not stated) displays Activity of 0.03

---
For CNC(=O)N1CCc2c(c(N3CCCc4cc(-c5cnn(C)c5)c(C(F)(F)F)cc43)nn2C2CCN(C(=O)CCOCCOCCOCCOCCNc3ccc4c(c3)C(=O)N(C3CCC(=O)NC3=O)C4=O)CC2)C1 (configuration not stated) the compound record lists Activity as 1.3

// field: Activity; key: CNC(=O)N1CCc2c(c(N3CCCc4cc(-c5cnn(C)c5)c(C(F)F)cc43)nn2C2CCN(C(=O)CCOCCOCCOCCOCCNc3ccc4c(c3)C(=O)N(C3CCC(=O)NC3=O)C4=O)CC2)C1 (configuration not stated) ; value = 1

Consider CNC(=O)N1CCc2c(c(N3CCCc4cc(-c5cnn(C)c5)c(C(F)F)cc43)nn2C2CCN(C(=O)CCOCCOCCOCCOCCOCCOCCNc3ccc4c(c3)C(=O)N(C3CCC(=O)NC3=O)C4=O)CC2)C1 (configuration not stated) . Its measured Activity is 0.49

Data point: CNC(=O)N1CCc2c(c(N3CCCc4cc(-c5cnn(C)c5)c(C(F)F)cc43)nn2C2CCN(C(=O)CCOCCNc3ccc4c(c3)C(=O)N(C3CCC(=O)NC3=O)C4=O)CC2)C1 (configuration not stated) ; Activity = 0.35

The measured Activity associated with CNC(=O)N1CCc2c(c(N3CCCc4cc(-c5cnn(CC(=O)NCCOCCOCCOCCOCCOCCOCCNc6ccc7c(c6)C(=O)N(C6CCC(=O)NC6=O)C7=O)c5)c(C(F)F)cc43)nn2C2CCOCC2)C1 (configuration not stated) reads 0.006

---

target: Protein cereblon/Histone acetyltransferase p300 (Homo sapiens) (UniProt Q09472+Q96SW2); assay: PROTAC activity at CRBN/HiBiT-tagged p300 in human HAP1 cells assessed as induction of p300 degradation by measuring maximal efficacy at 1 nM measured over 24 hrs by luminescence based analysis relative to control; type: cell-based
quantity-name: Emax (%)
// return numeric value only (unit: %, not printed)

The measured Emax associated with CNC(=O)N1CCc2c(c(N3CCCc4cc(-c5cnn(C)c5)c(C(F)F)cc43)nn2C2CCN(C(=O)CCOCCOCCOCCOCCNc3ccc4c(c3)C(=O)N(C3CCC(=O)NC3=O)C4=O)CC2)C1 (stereo not given) reads 57

Form field Emax, entry CNC(=O)N1CCc2c(c(N3CCCc4cc(-c5cnn(C)c5)c(C(F)(F)F)cc43)nn2C2CCN(C(=O)CCOCCOCCOCCOCCNc3ccc4c(c3)C(=O)N(C3CCC(=O)NC3=O)C4=O)CC2)C1 (stereo not given) : 56

Entry CNC(=O)N1CCc2c(c(N3CCCc4cc(-c5cnn(CC(=O)NCCOCCNc6ccc7c(c6)C(=O)N(C6CCC(=O)NC6=O)C7=O)c5)c(C(F)F)cc43)nn2C2CCOCC2)C1 (stereo not given) ; Emax = 18

Next:
Sample CNC(=O)N1CCc2c(c(N3CCCc4cc(-c5cnn(C)c5)c(C(F)F)cc43)nn2C2CCN(C(=O)CCOCCOCCOCCOCCOCCOCCNc3ccc4c(c3)C(=O)N(C3CCC(=O)NC3=O)C4=O)CC2)C1 (stereo not given) ; Emax observed: 32

Field Emax (entry CNC(=O)N1CCc2c(c(N3CCCc4cc(-c5cnn(C)c5)c(C(F)F)cc43)nn2C2CCN(C(=O)CCOCCNc3ccc4c(c3)C(=O)N(C3CCC(=O)NC3=O)C4=O)CC2)C1 (stereo not given) ) reads 44
